Field: Luciferase Activity (% of Control) Clone No. 63. Provide a value for each of the compounds that follow.
tested on: THP-1 clone No. 63 (luciferase mRNA with IL-1β 3′UTR instability sequence, three tandem AUUUA motifs); experiment: Luciferase reporter gene assay, clone No. 63 (pGL2_Neo30 with 30 bp IL-1β 3′UTR mRNA instability sequence); assay type: cell-based, human; conditions: compound 1 μM; differentiated cells

Request: What does the record list as Luciferase Activity (% of Control) Clone No. 63 for COc1cc(O)c2c(c1OC)/C=C/C[C@H](O)[C@H](O)C(=O)/C=C\C[C@H](C)OC2=O [Radicicol analog A, radicicol analog A] ?
Response: 49 % of Control

Request: Now this one: C=C(C/C=C/C(C)(C)O)[C@@H]1CC[C@]2(C)[C@@H]1CC[C@@H]1[C@@]3(C)CC[C@H](O)C(C)(C)[C@@H]3CC[C@]12C
Response: 91 % of Control

Request: Now this one: C[C@@H]1C[C@H]2[C@@H]3CCC4=CC(=O)C=C[C@]4(C)[C@@]3(F)[C@@H](O)C[C@]2(C)[C@@]1(O)C(=O)CO [Dexamethasone]
Response: 63 % of Control

Request: Now this one: O=C1CCC(N2C(=O)c3ccccc3C2=O)C(=O)N1 (stereo not shown) [Thalidomide]
Response: 112 % of Control
